biological target: T1, Human KIR3DL3 (human, UniProt Q8N743 26-410); assay: flow cytometry, KIR3DL3-transfected 300.19 cells
T1 construct: also called Killer cell immunoglobulin-like receptor 3DL3
T1 sequence (Q8N743 26-410 H321N limits assumed): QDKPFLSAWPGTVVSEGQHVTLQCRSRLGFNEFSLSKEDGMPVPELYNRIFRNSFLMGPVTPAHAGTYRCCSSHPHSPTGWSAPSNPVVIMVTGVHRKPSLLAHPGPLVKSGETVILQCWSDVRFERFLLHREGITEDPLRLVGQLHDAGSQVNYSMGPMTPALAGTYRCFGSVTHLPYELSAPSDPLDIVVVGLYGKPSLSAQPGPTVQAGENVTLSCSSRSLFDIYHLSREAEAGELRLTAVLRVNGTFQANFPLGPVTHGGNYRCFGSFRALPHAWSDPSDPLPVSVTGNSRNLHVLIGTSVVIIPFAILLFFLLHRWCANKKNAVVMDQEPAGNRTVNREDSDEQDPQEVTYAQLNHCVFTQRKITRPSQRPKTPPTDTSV
Please respond with reported Kd for every item in the list.
Kindly answer with a numeric value in µg/mL, unit omitted.

Field Kd (entry KIR3DL3 mAb 574.2.1G7.9.9 (antibody, IgG2b, V domains shown, Mouse hybridoma antibody, IgG2b; only variable domains given; also called AVS-3701) VH: ELKLEESGGGLVQPGGSMKLSCVASGFTFSNYWMNWVRQSPEKGLEWIAEIRLKSNNYATHYAESVKGRFTISRDDSKSSVYLQMNNLRAEDTGIFYCTPFYGSSFPYWGQGTLVTVSA VL: DIQMTQTTSSLSASLGDRVTISCRASQDISNYLNWYQQKPDGTVKLLIYYTSILQLGVPPRFSGSGSGTDYSLTISNLEQEDIATYFCQQGNTLPFTFGAGTKVELK ) reads 0.13

Kindly note the recorded Kd for KIR3DL3 mAb 574.2.2D8.6.9 (antibody, IgG2b, V domains shown, Mouse hybridoma antibody, IgG2b; also called AVS-3702) VH: DVQLVESGGGLVQPGGSRKLSCAASGFTFSYFGMHWVRRAPEKGLEWVAFISSDSTTIYYTDTVKGRFTISRDNPKNTLFLQMTSLRSEDTAIYYCARFYDGAMDYWGQGTSVTVST VL: DIVMTQSQKFMSTSVGDRVSITCKASQSVRTAVAWYQQKPGQSPKVLIYLASNRHTGVPDRFTGSGSGTDFTLTISNVQSEDLADYFCLQHWNYPLTFGAGTKLELK , which is 0.46

So for KIR3DL3 mAb 574.2.8F7.1.7.4 (antibody, IgG1, V domains shown, Mouse hybridoma antibody, IgG1; only variable domains given; also called AVS-3700) VH: DVKLVESGGGLVKPGGSLKLSCAASGFTFSSYCMSWVRQTPEKRLEWVATISSGGNYIYYPDSVKGRFTISRDIAKNTLYLQMSSLKSEDTAMYYCTRGGYDERYFDYWGQGTILTVSS VL: DIQMTQSPASLSASVGETVTITCRASENIYSYLAWYQQKQGKSPQLLVYNAKTLTEGMPSRFSGSGSGTQFSLRINSLQPEDFGSYYCQHHHGTPRTFGGGTKLEIK , the logged Kd turned out to be 1
